From: patent US20230135894A1

# system: MK2 (Homo sapiens)
# protocol: MK2 degradation in human SW1353 cells (MSD, 24 h)
# Type: cell-based
# Design: endogenous in cells; host or cells: SW-1353 (ATCC HTB-94)
# run-conditions: read-out: MK2 MSD SW1353 degradation 24 h GMean External Abs DC50
Provide the reported DC50 of each item.

Enquiry: Data request, read-out DC50, for C[C@@H]1CNc2c(sc3ccc4nc(N5C6CCC5CN(CC5CCN(c7cccc8c7n(C)c(=O)n8C7CCC(=O)NC7=O)CC5)C6)ccc4c23)C(=O)N1 (stereo partly shown) [Compound I-435]
Return: > 100 nM

Enquiry: Data request, read-out DC50, for C[C@@H]1CNc2c(sc3ccc4nc(-c5ccc(CNC(=O)COCCOCCOCCOCCc6cccc7c6n(C)c(=O)n7C6CCC(=O)NC6=O)cc5)ccc4c23)C(=O)N1 (stereo partly shown) [Compound I-92]
Return: 1 to 10 nM

Enquiry: Data request, read-out DC50, for CN1CC2(CNC(=O)c3c2[nH]c2c3CCc3cnc(-c4ccc(CN5CCC(OCC#Cc6ccc7c(c6)n(C)c(=O)n7C6CCC(=O)NC6=O)CC5)cc4F)cc3-2)C1 (stereo not shown) [Compound I-1]
Return: > 100 nM

Enquiry: Data request, read-out DC50, for C[C@@H]1CNc2c(sc3ccc4nc(-c5cccc(C#CCCNC(=O)COCCOCCOCCOCCc6ccc7c(c6)n(C)c(=O)n7C6CCC(=O)NC6=O)c5)ccc4c23)C(=O)N1 (stereo partly shown) [Compound I-51]
Return: 1 to 10 nM

====

Provide the reported Dmax of each item.
# system: MK2 (Homo sapiens, UniProt P49137)
# Sequence (P49137 whole entry): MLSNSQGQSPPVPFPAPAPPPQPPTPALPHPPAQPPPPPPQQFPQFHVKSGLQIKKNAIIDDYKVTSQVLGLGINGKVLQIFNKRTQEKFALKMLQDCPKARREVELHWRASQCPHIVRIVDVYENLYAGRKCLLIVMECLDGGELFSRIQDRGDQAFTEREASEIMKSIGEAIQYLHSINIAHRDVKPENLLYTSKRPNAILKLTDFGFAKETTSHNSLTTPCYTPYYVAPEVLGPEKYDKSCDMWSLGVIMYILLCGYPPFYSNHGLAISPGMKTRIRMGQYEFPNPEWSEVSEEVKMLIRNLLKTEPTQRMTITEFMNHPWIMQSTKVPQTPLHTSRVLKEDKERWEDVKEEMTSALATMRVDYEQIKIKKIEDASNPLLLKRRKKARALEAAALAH
# protocol: MK2 degradation in human THP-1 monocytic cells (MSD, 24 h)
# Type: cell-based
# Design: endogenous in cells
# run-conditions: THP-1, THP-1 cells

Enquiry: Data request, read-out Dmax, for C[C@@H]1CN(C)c2c(sc3ccc4nc(-c5ccc(N6CCC(CN7CCN(c8ccc9c(c8)n(C)c(=O)n9C8CCC(=O)NC8=O)CC7)CC6)cc5)ccc4c23)C(=O)N1 (stereo partly drawn) [Compound I-253]
Return: > 75%

Enquiry: Data request, read-out Dmax, for C[C@@H]1CNc2c(sc3ccc4nc(-c5cccc(N6CCC7(CC6)CN(CCCCCCc6cccc8c6n(C)c(=O)n8C6CCC(=O)NC6=O)C7)c5)ccc4c23)C(=O)N1 (stereo partly drawn) [Compound I-293]
Return: > 75%

Enquiry: Data request, read-out Dmax, for C[C@@H]1CNc2c(sc3ccc4nc(-c5cccc(N6CCN(C(=O)COCCOCCc7cccc8c7n(C)c(=O)n8C7CCC(=O)N(C)C7=O)CC6)c5)ccc4c23)C(=O)N1 (stereo partly drawn) [Compound I-318]
Return: < 50%

Enquiry: Data request, read-out Dmax, for C[C@@H]1CNc2c(sc3ccc4nc(-c5cccc(N6CCC(CN7CCC(c8cccc9c(N%10CCC(=O)NC%10=O)cncc89)CC7)CC6)c5)ccc4c23)C(=O)N1 [Compound I-312]
Return: > 75%

Enquiry: Data request, read-out Dmax, for Cn1c(=O)n(C2CCC(=O)NC2=O)c2ccc(N3CCC(CN4CCN(c5cc(-c6cc(-c7cc8c([nH]7)CCNC8=O)ccn6)cc(C6CCCC6)c5)CC4)CC3)cc21 (stereo not drawn) [Compound I-193]
Return: < 50%

Enquiry: Data request, read-out Dmax, for C[C@@H]1CNc2c(sc3ccc4nc(-c5cccc(N6CCN(C(=O)COCCOCCOCCOCCc7ccc8c(c7)n(C)c(=O)n8C7CCC(=O)NC7=O)CC6)c5)ccc4c23)C(=O)N1 (stereo partly drawn) [Compound I-36]
Return: > 75%

Enquiry: Data request, read-out Dmax, for C[C@@H]1CNc2c(sc3ccc4nc(N5CCC6(CCN(CC7CCN(c8ccc9c(c8)n(C)c(=O)n9C8CCC(=O)NC8=O)CC7)CC6)CC5)ccc4c23)C(=O)N1 (stereo partly drawn) [Compound I-389]
Return: < 50%

Enquiry: Data request, read-out Dmax, for C[C@@H]1CNc2c(sc3ccc4nc(N5CCN(CC6CCN(c7ccc8c(c7)n(C)c(=O)n8C7CCC(=O)NC7=O)CC6)CC5)ccc4c23)C(=O)N1 (stereo partly drawn) [Compound I-265]
Return: > 75%

Enquiry: Data request, read-out Dmax, for C[C@@H]1CNc2c(sc3ccc4nc(-c5ccc(N6CCN(CCC7CCN(c8cccc9c8n(C)c(=O)n9C8CCC(=O)NC8=O)CC7)CC6)cc5)ccc4c23)C(=O)N1 (stereo partly drawn) [Compound I-127]
Return: > 75%

Enquiry: Data request, read-out Dmax, for C[C@@H]1CNc2c(sc3ccc4nc(-c5cccc(C#CCNC(=O)COCCOCCc6cccc7c6n(C)c(=O)n7C6CCC(=O)NC6=O)c5)ccc4c23)C(=O)N1 (stereo partly drawn) [Compound I-50]
Return: > 75%

Enquiry: Data request, read-out Dmax, for CC(C)Oc1cc(-c2ccc3c(ccc4sc5c(c43)NC[C@@H](C)NC5=O)n2)cc(N2CCN(CC3CCN(c4ccc5c(c4)n(C)c(=O)n5C4CCC(=O)NC4=O)CC3)CC2)c1 (stereo partly drawn) [Compound I-230]
Return: > 75%

Enquiry: Data request, read-out Dmax, for Cc1cc(-c2ccc3c(ccc4sc5c(c43)NC[C@@H](C)NC5=O)n2)cnc1N1CCN(CCCc2ccc3c(c2)n(C)c(=O)n3C2CCC(=O)NC2=O)CC1 (stereo partly drawn) [Compound I-258]
Return: < 50%

Enquiry: Data request, read-out Dmax, for C[C@@H]1CNc2c(sc3ccc4nc(N5CCC(CN6CCN(c7ccc8c(c7)n(C)c(=O)n8C7CCC(=O)NC7=O)CC6)CC5)ccc4c23)C(=O)N1 (stereo partly drawn) [Compound I-264]
Return: > 75%

Enquiry: Data request, read-out Dmax, for Cc1cc(-c2ccc3c(ccc4sc5c(c43)NC[C@@H](C)NC5=O)n2)cnc1N1CCN(CC2CCN(c3ccc4c(c3)n(C)c(=O)n4C3CCC(=O)NC3=O)CC2)CC1 (stereo partly drawn) [Compound I-272]
Return: > 75%

Enquiry: Data request, read-out Dmax, for C[C@@H]1CNc2c(sc3ccc4nc(-c5cccc(N6CCN(CCCCCCCCCCc7ccc8c(c7)n(C)c(=O)n8C7CCC(=O)NC7=O)CC6)c5)ccc4c23)C(=O)N1 (stereo partly drawn) [Compound I-178]
Return: > 75%

Enquiry: Data request, read-out Dmax, for COc1cc(-c2ccc3c(ccc4sc5c(c43)NC[C@@H](C)NC5=O)n2)c(C)cc1N1CCN(CC2CCN(c3ccc4c(c3)n(C)c(=O)n4C3CCC(=O)NC3=O)CC2)CC1 (stereo partly drawn) [Compound I-432]
Return: 50 to 75%

Enquiry: Data request, read-out Dmax, for C[C@@H]1CNc2c(sc3ccc4nc(-c5ccc(N6CCN(CC7CCN(c8ccc9c(c8)n(C)c(=O)n9C8CCC(=O)NC8=O)CC7)CC6)cc5F)ccc4c23)C(=O)N1 (stereo partly drawn) [Compound I-289]
Return: > 75%

Enquiry: Data request, read-out Dmax, for Cn1c(=O)n(C2CCC(=O)NC2=O)c2ccc(N3CCC(CN4CCN(c5ccc(-c6cc(-c7cc8c([nH]7)C7(CCC7)CNC8=O)ccn6)cc5)CC4)CC3)cc21 (stereo not drawn) [Compound I-205]
Return: > 75%
